The measured values listed here are drawn from ChEMBL document CHEMBL3621157.

- System: Bacillus subtilis
- assay.protocol: Antimicrobial activity against Bacillus subtilis ATCC 6633 incubated at 37 degC for 24 hrs by cup diffusion method; further: test concentration or dose not given here
- Assay type: functional
Measured inhibition zone (IZ), listed per entry.
measurement.kind: inhibition zone (IZ) (mm)

[[record]]
smiles_repr = "O=C(O)CCc1nnc2c(Cc3ccccc3)nc3ccccc3n12"
value_units = "mm"
assay_value = 12

[[record]]
smiles_repr = "O=[N+]([O-])c1ccc(-c2nnc3c(Cc4ccccc4)nc4ccccc4n23)cc1"
value_units = "mm"
assay_value = 12

[[record]]
smiles_repr = "O=C(O)c1ccccc1-c1nnc2c(Cc3ccccc3)nc3ccccc3n12"
value_units = "mm"
assay_value = 16

